# METHOD DESCRIPTION: NCI Yeast Anticancer Drug Screen. Data for the sgs1 mgt1 strain (AID 161);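 also: 0% = growth of cultures given vehicle only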
# EXPERIMENTAL CONDITIONS: S. cerevisiae sgs1 mgt1 strain, at 50.0 µM, stronger effect = higher value
The panel holds about 79,000 compounds, 15% with a hit somewhere; the sample as a whole holds those more often.
For each of the compounds below, state its growth inhibition.
Answers are plain numbers, in %.

Examples from the recorded data:
[
  {
    "COMPOUND": "C/C(N=NS(=O)(=O)c1ccc(C)cc1)=C1\\C=CC=CN1O",
    "growth inhibition / %": -6.9
  },
  {
    "COMPOUND": "CCSCC1(c2ccc(OC)cc2)NC(=O)NC1=O (centres undefined)",
    "growth inhibition / %": 7.6
  },
  {
    "COMPOUND": "O=c1[nH]cnc2c1ncn2CCCCc1ccccc1",
    "growth inhibition / %": 8.45
  },
  {
    "COMPOUND": "O=S(=O)(Nc1ccc(NS(=O)(=O)c2ccccc2)nc1)c1ccccc1",
    "growth inhibition / %": 32.1
  },
  {
    "COMPOUND": "CC(=O)OCC1OC(OC(C)=O)C(N)C(OC(C)=O)C1OC(C)=O (centres undefined)",
    "growth inhibition / %": 11.9
  }
]

Items follow; give growth inhibition for each.
1. O=[N+]([O-])c1nccn1CC(O)CN1CCCCC1 (centres undefined)
2. Cn1c(=O)c(N=Nc2c(=O)n(C)c(=O)n3c2[nH]c2ccccc23)c2[nH]c3ccccc3n2c1=O
3. CCC(Cc1cnc2nc(N)nc(N)c2n1)c1ccc(C(=O)NC(CCC(=O)O)C(=O)O)cc1 (centres undefined)
4. N/C(=N\O)C(=O)c1ccccc1
5. NCc1cnccn1
6. CC=C(c1ccc(OC)cc1)c1ccc(OC)cc1
7. CNC(=O)Nc1ccccc1
8. NC(=O)N/N=C/c1cccc2ccccc12

**A:**
[16.8, 7.4, 1.8, -5.8, -4.65, 5, -12.1, -8.8]

Take each entry in turn and give its growth inhibition.
1. Cc1cccc(C(=O)OCc2ccccc2CN2CCCCC2)c1
2. CN(C)/N=N/c1nc2c(c(=O)n(C)c(=O)n2C)n1CC(O)CO (centres undefined)
3. O=C(O)/C(=C/c1ccccc1)c1ccccc1
4. NC(=O)c1ncn2c(=O)n(CCl)nnc12

**A:**
[-12.9, 22.1, -30.3, 29.6]

Would you mind giving growth inhibition for every compound in the list below?
1. O=[N+]([O-])/C(C(Cl)=C(Cl)Cl)=C(\SCc1ccccc1)N1CCCCC1
2. CC(=O)Oc1cccc(O)c1

**A:**
[6.75, -15.2]

Please go through the list and note growth inhibition for each compound.
1. CN(C)c1ccc([Si](c2ccc(N(C)C)cc2)c2ccc(N(C)C)cc2)cc1
2. COC1OC2COC(c3ccccc3)OC2C2C1N2C(=S)SC (centres undefined)
3. O=C(CNOCc1ccccc1)OCc1ccccc1

**A:**
1: -19.1; 2: -2.7; 3: 2.65

Report growth inhibition for each item below.
1. CCCCCCC(N)=O
2. CCCC1(C)COC(C)(CCC)OC1 (centres undefined)
3. CC(C)=C1CCC/C1=N\Nc1ccc([N+](=O)[O-])cc1[N+](=O)[O-]
4. CC1(COc2ccccc2)NC(=O)c2ccccc2O1 (centres undefined)
5. COc1cc2c(cc1OC)C(=O)C(C1=C(SC(=N)N)C(=O)c3cc(OC)c(OC)cc31)C2 (centres undefined)
6. N#C/C(=C\c1c[nH]c2ccccc12)C(=O)c1ccc(O)c(O)c1
7. N#CC(=S)N(C(=O)c1ccc(Cl)cc1)c1ccccc1Cl
8. CC(=O)OCC1OC(n2c(=S)n(-c3ccc([N+](=O)[O-])cc3)c(=O)c3ccccc32)C(OC(C)=O)C(OC(C)=O)C1OC(C)=O (centres undefined)

**A:**
1. -4.05
2. -17.9
3. 0.15
4. 10.6
5. -7.75
6. -20.6
7. 12.6
8. -9.55

Lab note: each compound below needs its growth inhibition filled in.
1. NC(=O)Nc1nc(-c2ccccc2)no1
2. CN(C)CCCNC(=O)/C=C\C(=O)O
3. COc1ccc(/C=C2\N=C(N/N=C\C(O)C(O)C(O)C(O)CO)NC2=O)cc1 (centres undefined)
4. CSc1ccc(C2=CCCCC2)cc1

**A:**
1. -17
2. 0.15
3. 9.2
4. 0.05

Dear colleague, could you send me growth inhibition for each of the items below? Thanks.
1. COc1cc(C(=O)C/C(CCC(=O)Nc2ccc(Cl)cc2Cl)=N/NC(=O)C(N)=O)ccc1O
2. CC(=O)Cc1nc(N)nc(Nc2ccc(Cl)c(Cl)c2)n1
3. CNC(=O)Oc1ccc2c(c1)[C@]1(C)CCN(C)[C@@H]1N2C

**A:**
1: -34.8; 2: -10.1; 3: -32.7

Dear colleague, could you please provide growth inhibition for the compounds listed below?
1. O=C(O)CC(CC(=O)O)c1ccc(F)cc1
2. Nc1nc(CCC(=O)Nc2cccc(C(F)(F)F)c2)cc(-c2cccc3ccccc23)n1

**A:**
-10.2
29.1

----------
# METHOD DESCRIPTION: NCI Yeast Anticancer Drug Screen. Data for the sgs1 mgt1 strain (AID 161);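 also: 0% = growth of cultures given vehicle only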
# EXPERIMENTAL CONDITIONS: S. cerevisiae sgs1 mgt1 strain, at 50.0 µM, stronger effect = higher value
# Procedure: Growth inhibition of yeast strains with defined genetic alterations is measured as a screen for potential anti-cancer activity. Selected strains with alterations in DNA damage repair or cell cycle control were exposed to compounds and growth inhibition was measured relative to vehicle treated controls. The strain used in this assay is sgs1 mgt1
The panel holds about 79,000 compounds, 15% with a hit somewhere; the sample as a whole holds those more often.
PROPERTY LABEL: growth inhibition (%)
Numbers only, in %.

[
  {
    "COMPOUND": "CCCCCCCCCCCCCCCCCC(=O)NCCCNCCCNC(=O)CCCCCCCCCCCCCCCCC",
    "PROPERTY LABEL": "growth inhibition",
    "DISPLAY UNIT": "%",
    "MEASUREMENT": -12.2
  },
  {
    "COMPOUND": "N#CC1C2C1C1C=CC2n2c(=O)n(-c3ccccc3)c(=O)n21 (configuration not stated)",
    "PROPERTY LABEL": "growth inhibition",
    "DISPLAY UNIT": "%",
    "MEASUREMENT": 3.25
  },
  {
    "COMPOUND": "CC(=O)NC(Cc1ccccc1)C(=O)Nc1ccc(C)cc1 (configuration not stated)",
    "PROPERTY LABEL": "growth inhibition",
    "DISPLAY UNIT": "%",
    "MEASUREMENT": 15.8
  },
  {
    "COMPOUND": "COC1CC(NC(C)=O)C(OC(C)=O)C(C)O1 (configuration not stated)",
    "PROPERTY LABEL": "growth inhibition",
    "DISPLAY UNIT": "%",
    "MEASUREMENT": -5.65
  },
  {
    "COMPOUND": "Cc1cccc(C)c1NC(=O)C1=NC(=S)NC(c2ccccc2)C1c1nc2ccccc2s1 (configuration not stated)",
    "PROPERTY LABEL": "growth inhibition",
    "DISPLAY UNIT": "%",
    "MEASUREMENT": -15.4
  },
  {
    "COMPOUND": "O=C(O)c1cccc(CO)c1O",
    "PROPERTY LABEL": "growth inhibition",
    "DISPLAY UNIT": "%",
    "MEASUREMENT": -12.7
  },
  {
    "COMPOUND": "CC(C)(C)OC(=O)c1cccc(C(=O)OC(C)(C)C)c1",
    "PROPERTY LABEL": "growth inhibition",
    "DISPLAY UNIT": "%",
    "MEASUREMENT": 32.2
  },
  {
    "COMPOUND": "C(=N\\Nc1nc2ccccc2s1)/c1cccs1",
    "PROPERTY LABEL": "growth inhibition",
    "DISPLAY UNIT": "%",
    "MEASUREMENT": 23.6
  },
  {
    "COMPOUND": "CC(=O)CC(=O)NC1CCCC1",
    "PROPERTY LABEL": "growth inhibition",
    "DISPLAY UNIT": "%",
    "MEASUREMENT": -33
  },
  {
    "COMPOUND": "CC(=O)O[C@]12CCCCCC1C1(O)C(O)CCCC[C@H]12 (some centres not stated)",
    "PROPERTY LABEL": "growth inhibition",
    "DISPLAY UNIT": "%",
    "MEASUREMENT": -21.2
  }
]

Okay, here is my list. What is growth inhibition for each of these?
1. CS(=O)(=O)NCCBr
2. Nc1ncnc2c1ncn2-c1ccc(N(CCO)CCO)cc1

**A:**
1. 5.9
2. -1.15
